Data credit: PubChem BioAssay AID2013

Listed molecules paired with reported inhibition
Target: G-protein coupled receptor 55 (Homo sapiens)
Assay: GPR55 antagonists blocking LPI-driven arrestin recruitment, primary screen, imaging, U2OS, beta-arrestin-GFP, LPI agonist (AID 2013);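 also: U2OS cells stably carrying GPR55 and arrestin-GFP stimulated by 5 µM LPI near EC80; imaged beta-arrestin-GFP aggregate spots per cell after agonist stimulation; plate controls were LPI-stimulated DMSO wells for no effect and DMSO wells without LPI for full effect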
Details: U2OS GPR55 beta-arrestin-GFP translocation imaging, LPI antagonism; at 10 µM; active compounds read high
Screen size: about 290,000 compounds; about 370 (0.13%) were called active. The list comes from a sample in which actives are over-represented; it also holds close analogues and randomly drawn compounds. Measured potencies and affinities stand elsewhere.
Response body: numeric value in %, unit text excluded.

Cc1ccc(NC(=O)C2C3C=CC4(O3)C2C(=O)N(CCCN2CCCCC2)C4C(=O)NC2CCCCC2)cc1C (configuration not stated) : 1.2
CCc1cc2c(=O)c(-c3ccc4c(c3)OCCO4)coc2cc1OS(C)(=O)=O : 8
CCCCOc1ccccc1NC(=O)c1ccco1 : 13.2

Problem: I'd like to know its inhibition. The molecule in question is N#Cc1c(N)nc(SCC(=O)C23CC4CC(CC(C4)C2)C3)c(C#N)c1-c1ccc(Cl)cc1
Result: 0.2

Problem: // inhibition lookup, key: CCCn1cc(S(=O)(=O)c2ccccc2)c(=O)c2cc(F)c(N3CCN(C)CC3)cc21
Result: 7.5

Problem: Consider the molecule O=C(CSc1ncccn1)N1CCN(S(=O)(=O)c2ccccc2)CC1 and give its measured inhibition.
Result: 9.7

Problem: Consider the molecule CC(c1ccc(F)cc1)n1cc(C(=O)NCc2ccccn2)nn1 (configuration not stated) and give its measured inhibition.
Result: -1.6

Problem: Need inhibition, item Cn1c(NC(=O)c2cc(-c3ccc4c(c3)OCO4)nc3ccccc23)cc(=O)n(C)c1=O
Result: 9.3

Problem: What inhibition value was documented for this molecule, COc1ccc(-c2csc(Nc3ccc(S(=O)(=O)Nc4cc(C)on4)cc3)n2)cc1 ?
Result: 5.4

Problem: Consider the molecule shown here: COc1ccc(C2C(C#N)=C(N)Oc3c2c(-c2ccccc2)nn3-c2ccccc2)c(OC)c1OC (configuration not stated) What is its recorded inhibition?
Result: 79.5

Problem: Quick one: inhibition of COc1ccccc1C1C(C#N)=C(N)Oc2c1c(-c1ccccc1)nn2-c1ccccc1 (configuration not stated) ?
Result: 96.3

Problem: Please give the measured inhibition for this molecule: O=C(NC12CC3CC(CC(C3)C1)C2)c1ccc(Br)o1
Result: 13

Problem: Quick one: inhibition for CC1CN(S(=O)(=O)c2ccc(NC(=O)CCN3C(=O)c4ccccc4C3=O)cc2)CC(C)O1 (configuration not stated) ?
Result: 4.4

Problem: So what's the measured inhibition for this one? COc1cccc(N2CCN(c3ncnc4c3[nH]c3ccccc34)CC2C)c1 (configuration not stated)
Result: 33

Problem: Dear colleague, I am looking for the recorded inhibition of the following molecule: Cc1ccc(S(=O)(=O)N2CCCCC2)cc1NC(=O)COC(=O)C1CC2C=CC1C2 (configuration not stated)
Result: -2.7

Problem: # get_value(readout='inhibition', item= N=c1c2c(ncn1CCCO)Oc1cc(O)ccc1C2c1ccccc1 (configuration not stated) )
Result: 33.6

Problem: Fill blank: measured inhibition of the molecule O=C(NC12CC3CC(CC(C3)C1)C2)c1ccc(-c2ccccc2Cl)o1 is ____.
Result: -9.4

Problem: Bench note: what inhibition did COc1cc(NS(=O)(=O)c2ccc(Nc3nc(-c4ccccn4)cs3)cc2)nc(OC)n1 show?
Result: 2.2

Problem: Entry CN(C)c1ccc(C(=O)OCC(=O)Nc2ccc(N3CCOCC3)cc2)cc1 has what inhibition?
Result: 0.2
